target: HiBiT-BRM fusion protein in stable HeLa cell line (Homo sapiens, UniProt P51531); construct: expressed in transfected cells; assay: HiBiT-BRM cell-based degradation assay (Nano-Glo HiBiT Lytic Detection, 24 h); design: scale not given here; conditions: HeLa HiBiT-BRM cells, read-out: BRM HiBit Degradation IC50
Sequence (P51531 whole entry, the tested form may be a part): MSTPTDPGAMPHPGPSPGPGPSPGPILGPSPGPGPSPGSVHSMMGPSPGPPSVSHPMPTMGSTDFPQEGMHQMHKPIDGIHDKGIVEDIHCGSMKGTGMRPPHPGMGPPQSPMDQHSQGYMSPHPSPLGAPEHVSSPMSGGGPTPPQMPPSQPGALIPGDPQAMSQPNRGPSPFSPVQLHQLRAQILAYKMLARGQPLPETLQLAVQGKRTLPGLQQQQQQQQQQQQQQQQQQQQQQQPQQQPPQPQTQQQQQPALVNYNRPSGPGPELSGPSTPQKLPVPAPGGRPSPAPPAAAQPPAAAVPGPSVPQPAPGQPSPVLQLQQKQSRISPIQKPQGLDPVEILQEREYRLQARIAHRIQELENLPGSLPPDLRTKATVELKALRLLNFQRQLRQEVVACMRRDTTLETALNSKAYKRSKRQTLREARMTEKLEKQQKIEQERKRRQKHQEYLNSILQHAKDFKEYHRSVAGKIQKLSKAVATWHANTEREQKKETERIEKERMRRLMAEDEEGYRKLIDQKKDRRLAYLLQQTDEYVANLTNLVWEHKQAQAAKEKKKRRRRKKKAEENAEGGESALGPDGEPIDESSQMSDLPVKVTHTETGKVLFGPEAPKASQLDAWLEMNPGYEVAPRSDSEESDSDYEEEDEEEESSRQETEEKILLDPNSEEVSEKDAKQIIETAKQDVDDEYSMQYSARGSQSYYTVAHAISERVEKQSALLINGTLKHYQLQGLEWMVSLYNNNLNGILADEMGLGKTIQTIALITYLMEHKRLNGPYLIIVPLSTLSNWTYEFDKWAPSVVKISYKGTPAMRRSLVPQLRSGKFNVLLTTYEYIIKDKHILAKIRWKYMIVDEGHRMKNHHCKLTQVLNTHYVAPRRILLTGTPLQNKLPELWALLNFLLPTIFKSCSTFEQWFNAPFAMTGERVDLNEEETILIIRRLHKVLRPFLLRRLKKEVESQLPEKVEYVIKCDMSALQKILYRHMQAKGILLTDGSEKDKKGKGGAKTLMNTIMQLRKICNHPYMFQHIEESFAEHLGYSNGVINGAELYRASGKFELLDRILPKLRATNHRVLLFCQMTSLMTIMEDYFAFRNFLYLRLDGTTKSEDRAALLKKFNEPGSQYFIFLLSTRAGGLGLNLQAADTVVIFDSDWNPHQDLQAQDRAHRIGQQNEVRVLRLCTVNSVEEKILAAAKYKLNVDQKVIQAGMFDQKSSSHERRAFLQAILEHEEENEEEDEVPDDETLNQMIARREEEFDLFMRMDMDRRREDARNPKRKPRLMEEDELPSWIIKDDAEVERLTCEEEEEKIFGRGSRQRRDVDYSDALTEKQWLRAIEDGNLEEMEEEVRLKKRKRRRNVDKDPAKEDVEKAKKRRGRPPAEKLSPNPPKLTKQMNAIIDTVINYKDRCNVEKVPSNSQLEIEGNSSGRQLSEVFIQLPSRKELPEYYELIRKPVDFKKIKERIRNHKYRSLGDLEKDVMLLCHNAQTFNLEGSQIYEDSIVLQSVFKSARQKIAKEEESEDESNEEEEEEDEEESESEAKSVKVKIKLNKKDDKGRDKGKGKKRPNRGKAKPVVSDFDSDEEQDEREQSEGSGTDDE
This section presents molecules with their documented DC50 values.
METRIC_NAME: DC50

Cc1ncsc1-c1ccc([C@H](C)NC(=O)[C@@H]2C[C@@H](O)CN2C(=O)[C@@H](c2cc(N3CCC(N4CC(c5ccc6cc(-c7ccccc7O)nnc6c5)C4)CC3)no2)C(C)C)cc1 [Compound 10] = > 0.01 µM
Cc1ncsc1-c1ccc([C@H](C)NC(=O)[C@@H]2C[C@@H](O)CN2C(=O)[C@@H](c2cc(N3CC4(CN(Cc5ccc6nnc(-c7ccccc7O)cc6c5)C4)C3)no2)C(C)C)cc1 [Compound 245] = > 0.01 µM
Cc1ncsc1-c1ccc([C@H](C)NC(=O)[C@@H]2C[C@@H](O)CN2C(=O)C(C(C)C)n2cc(N3CCC4(CC3)CCN4c3ccc4nnc(-c5ccccc5O)cc4c3)nn2)cc1 (stereo partly drawn) [Compound 278] = < 0.01 µM

----------
target: HiBiT-BRM fusion protein in stable HeLa cell line (Homo sapiens); construct: expressed in transfected cells; test: HiBiT-BRM cell-based degradation assay (Nano-Glo HiBiT Lytic Detection, 24 h); design: scale not given here; conditions: HeLa HiBiT-BRM cells, read-out: BRM HiBit Degradation IC50
This section presents compounds with their documented DC50 values.
METRIC_NAME: DC50

Cc1ncsc1-c1ccc([C@H](C)NC(=O)[C@@H]2C[C@@H](O)CN2C(=O)[C@H](C(C)C)n2cc(-c3cc4cc(-c5ccccc5O)nnc4cc3F)nn2)cc1 = < 10 nM
Cc1ncsc1-c1ccc([C@H](C)NC(=O)[C@@H]2C[C@@H](O)CN2C(=O)[C@H](C(C)C)n2cnc(N3CC4(CN(c5ccc6cc(-c7ccccc7O)nnc6c5)C4)C3)n2)cc1 = > 100 nM
Cc1ncsc1-c1ccc([C@H](C)NC(=O)[C@@H]2C[C@@H](O)CN2C(=O)C(C(C)C)n2cc(N3CCC4(CC3)CCN4c3ccc4cc(-c5ccccc5O)nnc4c3)nn2)cc1 (stereo partly shown) = < 10 nM
CC(C)[C@@H](C(=O)N1C[C@H](O)C[C@H]1C(=O)N[C@@H](C)c1ccccc1)c1cc(-c2ccc3nnc(-c4ccccc4O)cc3c2)no1 = < 10 nM

----------
molecular target: HiBit-BRG1 fusion protein in stable HeLa cell line expressing HiBit-BRG1 and LgBit (Homo sapiens, UniProt P51532); construct: expressed in transfected cells; assay: HiBiT-BRG1 cell-based degradation assay (Nano-Glo HiBiT, 24 h); details: HeLa HiBit-BRG1/LgBit cells, top dose 30 μM, read-out: BRG1 HiBit Degradation Maximum (%)
Sequence (P51532 whole entry, the tested form may be a part): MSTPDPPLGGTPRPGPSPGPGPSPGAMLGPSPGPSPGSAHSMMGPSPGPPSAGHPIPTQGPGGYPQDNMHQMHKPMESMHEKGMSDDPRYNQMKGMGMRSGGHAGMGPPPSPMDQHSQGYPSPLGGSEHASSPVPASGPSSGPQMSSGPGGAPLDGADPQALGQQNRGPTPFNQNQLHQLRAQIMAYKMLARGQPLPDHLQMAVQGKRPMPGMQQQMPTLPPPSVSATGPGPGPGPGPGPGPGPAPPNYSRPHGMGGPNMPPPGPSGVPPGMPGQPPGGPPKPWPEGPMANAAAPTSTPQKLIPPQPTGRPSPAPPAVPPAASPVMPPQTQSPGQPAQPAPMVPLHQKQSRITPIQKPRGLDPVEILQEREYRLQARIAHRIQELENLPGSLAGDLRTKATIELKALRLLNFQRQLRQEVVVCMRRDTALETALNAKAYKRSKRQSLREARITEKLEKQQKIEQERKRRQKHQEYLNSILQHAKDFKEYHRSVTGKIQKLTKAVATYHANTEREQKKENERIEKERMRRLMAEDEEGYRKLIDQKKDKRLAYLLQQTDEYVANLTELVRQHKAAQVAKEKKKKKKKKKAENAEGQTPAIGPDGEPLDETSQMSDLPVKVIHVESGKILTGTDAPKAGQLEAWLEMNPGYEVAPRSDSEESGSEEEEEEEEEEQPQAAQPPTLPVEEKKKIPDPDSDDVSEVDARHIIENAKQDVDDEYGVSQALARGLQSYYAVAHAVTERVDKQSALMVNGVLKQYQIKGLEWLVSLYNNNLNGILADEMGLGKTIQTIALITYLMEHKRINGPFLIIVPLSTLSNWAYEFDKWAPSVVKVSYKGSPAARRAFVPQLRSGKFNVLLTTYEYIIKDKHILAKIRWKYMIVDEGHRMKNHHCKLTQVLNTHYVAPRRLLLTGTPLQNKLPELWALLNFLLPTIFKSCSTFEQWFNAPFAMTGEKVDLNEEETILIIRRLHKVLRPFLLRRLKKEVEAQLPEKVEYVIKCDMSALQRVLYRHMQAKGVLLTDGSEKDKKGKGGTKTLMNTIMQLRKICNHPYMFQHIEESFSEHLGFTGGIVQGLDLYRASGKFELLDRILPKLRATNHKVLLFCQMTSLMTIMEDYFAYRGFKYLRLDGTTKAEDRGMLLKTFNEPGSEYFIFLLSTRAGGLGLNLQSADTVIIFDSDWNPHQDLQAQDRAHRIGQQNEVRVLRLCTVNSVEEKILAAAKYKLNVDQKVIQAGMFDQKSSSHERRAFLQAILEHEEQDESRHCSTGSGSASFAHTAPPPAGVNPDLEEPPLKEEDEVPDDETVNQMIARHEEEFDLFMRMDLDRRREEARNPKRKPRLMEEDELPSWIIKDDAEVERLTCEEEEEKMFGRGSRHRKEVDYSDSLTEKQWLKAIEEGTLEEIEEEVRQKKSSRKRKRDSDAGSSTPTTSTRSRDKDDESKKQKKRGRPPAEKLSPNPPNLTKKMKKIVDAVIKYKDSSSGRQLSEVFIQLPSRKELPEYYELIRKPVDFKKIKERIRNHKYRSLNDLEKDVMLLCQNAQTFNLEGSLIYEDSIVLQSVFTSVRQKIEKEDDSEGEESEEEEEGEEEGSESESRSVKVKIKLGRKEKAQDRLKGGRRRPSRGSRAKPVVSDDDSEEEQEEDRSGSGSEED
This section presents compounds with their documented Dmax values.
METRIC_NAME: Dmax

CC(C)[C@@H](C(=O)N1C[C@H](O)C[C@H]1C(=O)N[C@@H](C)c1ccc(F)cc1)c1cc(N2CC3(C2)CN(c2cc4nnc(-c5ccccc5O)cc4cc2C(F)F)C3)no1 [Compound 236] = < 50%
Cc1ncsc1-c1ccc([C@H](C)NC(=O)[C@@H]2C[C@@H](O)CN2C(=O)[C@@H](c2cc(N3CCC[C@@H](c4ccc5nnc(-c6ccccc6O)cc5c4)C3)no2)C(C)C)cc1 [Compound 101] = < 50%
Cc1ncsc1-c1ccc([C@H](C)NC(=O)[C@@H]2C[C@@H](O)CN2C(=O)[C@H](C(C)C)n2cc(-c3ccc4nnc(-c5cccc(F)c5O)cc4c3)nn2)cc1 [Compound 150] = > 75%
Cc1cc2nnc(-c3ccccc3O)cc2cc1-c1cc([C@H](C(=O)N2C[C@H](O)C[C@H]2C(=O)N[C@@H](C)c2ccc(-c3scnc3C)cc2)C(C)C)on1 [Compound 149] = > 50%
Cc1ncsc1-c1ccc([C@H](C)NC(=O)[C@@H]2C[C@@H](O)CN2C(=O)[C@H](C(C)C)n2cc(-c3cc4cc(-c5ccccc5O)nnc4cc3C(F)F)nn2)cc1 [Compound 171] = > 75%

FYI, the data here is from patent US20260193264A1.
